meta.source: PubChem BioAssay (NCI)

- System: HOP-92 NSCLC
- testDetails: NCI-60 one-dose screen, 48 h
- experimentalSetup: 10 µM unless noted
About 83,000 compounds went through this panel and 20% of them were active in at least one assay; those are over-represented in the sample as a whole. Activity calls are given as the source filed them. How the source made its calls: active means growth percent below 10; inactive means the rest.
Outcome codes: active, inactive

structureSmiles: COc1ccccc1/C=C1\COc2ccc(-c3ccccc3)cc2C1=O
classLabel: inactive

structureSmiles: COc1ccc(C(=O)/C=C/c2cn(Cc3ccc(Cl)cc3)c3ccccc23)cc1
classLabel: inactive

structureSmiles: Cc1nc2sc(C(=O)Nc3ccccc3)c(N)c2cc1C(=O)c1ccc(C(F)(F)F)cc1
classLabel: inactive

structureSmiles: CCCCCCCCOC(=O)c1ccc(O)c(OC)c1
classLabel: inactive

structureSmiles: COc1ccc(CNC(=O)COc2ccc(/C=N/Nc3nc4ccccc4s3)cc2)cc1
classLabel: active

structureSmiles: BrC(Br)(Br)c1cnc2ccccc2n1
classLabel: active

structureSmiles: Cc1ccc(C(c2c(O)c3cc(Br)ccc3[nH]c2=O)c2c(O)c3cc(Br)ccc3[nH]c2=O)cc1
classLabel: inactive

structureSmiles: O=S(=O)(O)c1cc(O)c2c(N=Nc3ccc(Nc4ccccc4)c4c(S(=O)(=O)O)cccc34)cc(S(=O)(=O)O)cc2c1
classLabel: inactive

structureSmiles: CC(=O)Nc1ccc(C(=O)Nc2cc(-c3ccccc3)ccc2N)cc1
classLabel: inactive

structureSmiles: Cn1c(COC(=O)NCCN2CCOCC2)nc2c(N3CCOCC3)nc(-c3ccccc3)nc21
classLabel: active
